FYI, the data here is from patent US20240360238A1.

# Experimental system: T1, purified human CD117 ectodomain (R&D Systems #332-SR) (human, UniProt P10721 26-524)
# T1 construct: extracellular domain; Bought protein; also called c-kit; purified recombinant human CD117 ectodomain
# T1 sequence (P10721 26-524): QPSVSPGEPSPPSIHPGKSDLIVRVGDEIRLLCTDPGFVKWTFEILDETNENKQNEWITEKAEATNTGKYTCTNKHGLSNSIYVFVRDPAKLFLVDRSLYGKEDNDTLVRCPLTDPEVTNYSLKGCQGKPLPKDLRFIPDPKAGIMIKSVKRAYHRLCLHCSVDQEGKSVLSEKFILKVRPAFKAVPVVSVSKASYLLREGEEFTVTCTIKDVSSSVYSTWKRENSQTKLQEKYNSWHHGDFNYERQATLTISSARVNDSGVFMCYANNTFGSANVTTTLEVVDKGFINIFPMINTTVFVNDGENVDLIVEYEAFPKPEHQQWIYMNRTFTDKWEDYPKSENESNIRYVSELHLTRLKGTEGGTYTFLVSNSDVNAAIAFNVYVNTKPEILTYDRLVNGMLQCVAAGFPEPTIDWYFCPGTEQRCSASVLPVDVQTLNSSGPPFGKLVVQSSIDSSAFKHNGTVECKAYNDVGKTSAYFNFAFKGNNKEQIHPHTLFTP
# Measurement description: BLI, purified IgG on sensor, soluble ectodomain; apparent monovalent
Label y when koff is at or above 0.0004 s⁻¹; anything below gets n.

Binder	Class
HC-8/LC-8 (Ab8) (antibody, IgG1, V domains shown, Purified IgG; also called 008) VH: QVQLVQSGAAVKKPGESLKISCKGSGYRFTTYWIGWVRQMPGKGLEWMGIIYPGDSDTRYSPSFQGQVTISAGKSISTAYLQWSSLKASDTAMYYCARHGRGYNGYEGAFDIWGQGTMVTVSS VL: DIQMTQSPSSLSASVGDRVTITCRASQGISSALAWYQQKAGKAPKVLISDASSLESGVPSRFSGSGSGTDFTLSISSLQPEDFATYYCQQFNGYPLTFGGGTKVDIK	n
HC-6/LC-6 (Ab6) (antibody, IgG1, V domains shown, Purified IgG; also called 006) VH: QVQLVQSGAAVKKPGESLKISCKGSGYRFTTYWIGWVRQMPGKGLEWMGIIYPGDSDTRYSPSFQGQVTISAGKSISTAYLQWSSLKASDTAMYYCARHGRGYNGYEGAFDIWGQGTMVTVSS VL: AIRMTQSPSSLSASVGDRVIIACRASQGIGGALAWYQQKPGNAPKVLVYDASTLESGVPSRFSGGGSGTDFTLTISSLQPEDFATYYCQQFNSYPLTFGGGTKLEIK	y
HC-19/LC-19 (Ab19) (antibody, IgG1, V domains shown, From rat immunization/hybridoma; purified IgG in BLI; also called 019) VH: EVQLQESGPGLVKPSQSLSLTCSVTGYSISSNYRWNWIRKFPGNKVEWMGYINSAGSTNYNPSLKSRISMTRDTSKNQFFLQVNSVTTEDTATYYCARSLRGYITDYSGFFDYWGQGVMVTVSS VL: DIRMTQSPASLSASLGETVNIECLASEDIFSDLAWYQQKPGKSPQLLIYNANSLQNGVPSRFSGSGSGTRYSLKINSLQSEDVATYFCQQYKNYPLTFGSGTKLEIK	y
HC-20/LC-20 (Ab20) (antibody, IgG1, V domains shown, From rat immunization/hybridoma; purified IgG in BLI; also called 020) VH: EVQLQQYGAELGKPGTSVRLSCKLSGYKIRNTYIHWVNQRPGKGLEWIGRIDPANGNTIYAEKFKSKVTLTADTSSNTAYMQLSQLKSDDTALYFCAMNYEGYEDYWGQGVMVTVSS VL: DIQMTQSPSFLSASVGDSVTINCKASQNINKYLNWYQQKLGEAPKRLIHKTDSLQTGIPSRFSGSGSGTDYTLTISSLQPEDVATYFCFQYKSGFMFGAGTKLELK	n
HC-9/LC-9 (Ab9) (antibody, IgG1, V domains shown, Purified IgG; also called 009) VH: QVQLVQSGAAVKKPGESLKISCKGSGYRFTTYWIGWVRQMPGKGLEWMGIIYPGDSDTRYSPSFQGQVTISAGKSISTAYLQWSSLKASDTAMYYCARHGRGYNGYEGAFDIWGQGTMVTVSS VL: AIRMTQSPSSLSASVGDRVTITCQASQGIRNDLGWYQQKPGKAPKLLIYDASNLETGVPSRFSGSGSGTDFTFTISSLQPEDIATYYCQQFNSYPLTFGGGTKLEIK	y
